Study System: PDGFRB (Homo sapiens, UniProt P09619)
Construct: Kinases are expressed as either kinase domains or full length constructs; made in house
Sequence (P09619 33-1106, species assumed): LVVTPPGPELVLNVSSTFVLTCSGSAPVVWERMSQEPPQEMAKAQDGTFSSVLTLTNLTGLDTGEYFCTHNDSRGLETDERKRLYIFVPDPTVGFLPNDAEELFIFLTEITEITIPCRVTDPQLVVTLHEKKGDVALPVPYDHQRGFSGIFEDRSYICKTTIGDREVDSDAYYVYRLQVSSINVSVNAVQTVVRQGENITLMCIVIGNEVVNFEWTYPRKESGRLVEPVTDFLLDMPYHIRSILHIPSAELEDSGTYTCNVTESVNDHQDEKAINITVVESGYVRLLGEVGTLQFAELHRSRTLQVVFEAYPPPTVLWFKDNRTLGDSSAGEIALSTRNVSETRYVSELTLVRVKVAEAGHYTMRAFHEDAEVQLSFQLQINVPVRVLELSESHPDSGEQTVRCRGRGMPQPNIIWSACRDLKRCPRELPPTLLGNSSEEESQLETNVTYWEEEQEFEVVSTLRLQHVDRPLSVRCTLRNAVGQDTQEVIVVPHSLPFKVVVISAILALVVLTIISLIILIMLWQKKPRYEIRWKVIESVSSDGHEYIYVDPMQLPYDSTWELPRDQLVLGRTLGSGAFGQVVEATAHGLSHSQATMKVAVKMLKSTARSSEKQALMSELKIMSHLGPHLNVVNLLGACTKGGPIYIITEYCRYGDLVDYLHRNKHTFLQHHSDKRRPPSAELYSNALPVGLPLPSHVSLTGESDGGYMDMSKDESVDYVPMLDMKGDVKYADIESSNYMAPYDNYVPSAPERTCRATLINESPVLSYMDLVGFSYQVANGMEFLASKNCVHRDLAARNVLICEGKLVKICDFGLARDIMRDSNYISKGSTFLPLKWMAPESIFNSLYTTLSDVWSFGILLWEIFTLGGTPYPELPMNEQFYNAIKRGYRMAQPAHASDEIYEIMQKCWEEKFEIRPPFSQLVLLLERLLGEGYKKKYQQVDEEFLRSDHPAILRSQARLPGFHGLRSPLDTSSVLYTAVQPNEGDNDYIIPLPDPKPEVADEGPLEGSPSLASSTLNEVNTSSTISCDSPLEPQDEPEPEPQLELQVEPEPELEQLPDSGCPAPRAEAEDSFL
Assay Summary: Kinase inhibition assay (33P transfer), PDGFRB
Type: biochemical
Condition Description: read-out: PDGFRB-1
// reported IC50 per item

Previously resolved entries follow.
O=C(O)Cc1cccc(Nc2ncnc(-n3c(NCc4ccccc4)nc4ccccc43)n2)c1
< 0.886 µM
O=C(O)Cc1cccc(Nc2ncnc(-c3cccnc3Nc3ccccc3)n2)c1
< 1 µM
COc1cc(Nc2ncnc(-n3c(NCc4ccc(OC(F)(F)F)cc4)nc4ccccc43)n2)cc(OC)c1OC
> 7.93 µM
Fc1ccc(Nc2ncnc(Nc3ccc4c(cnn4Cc4ccccc4)c3)n2)cc1F
> 10.5 µM
COc1cc(Nc2ncnc(Nc3cc(F)cc(C(F)(F)F)c3)n2)cc(OC)c1OC
0.91 to 5.46 µM

Determine from records and report IC50 for `CCOc1ccc(Nc2ncnc(Nc3cc(-c4ccc(C(=O)OC)cc4)n[nH]3)n2)cc1`
0.927 to 5.56 µM

Determine from records and report IC50 for COc1cc(Nc2ncnc(-c3cccnc3NC(C)c3cccc4ccccc34)n2)cc(OC)c1OC (centres unmarked)
0.787 to 4.72 µM

---

Study System: AKT (Homo sapiens, UniProt Q9Y243)
Construct: Kinases are expressed as either kinase domains or full length constructs; made in house
Sequence (Q9Y243 whole entry, the tested form may be a part): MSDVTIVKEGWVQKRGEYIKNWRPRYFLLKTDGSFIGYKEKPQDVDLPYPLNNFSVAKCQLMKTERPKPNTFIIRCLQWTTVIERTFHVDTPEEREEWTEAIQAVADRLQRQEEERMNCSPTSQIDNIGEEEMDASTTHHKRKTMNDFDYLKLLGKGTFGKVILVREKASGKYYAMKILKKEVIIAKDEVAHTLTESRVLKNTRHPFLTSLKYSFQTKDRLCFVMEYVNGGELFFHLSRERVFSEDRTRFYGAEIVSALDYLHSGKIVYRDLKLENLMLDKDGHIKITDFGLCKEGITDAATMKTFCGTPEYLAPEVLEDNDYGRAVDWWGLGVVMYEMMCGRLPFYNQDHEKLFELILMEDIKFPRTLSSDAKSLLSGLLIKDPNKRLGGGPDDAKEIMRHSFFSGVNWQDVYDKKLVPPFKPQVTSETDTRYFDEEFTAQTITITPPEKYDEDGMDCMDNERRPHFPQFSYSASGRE
Assay Summary: Kinase inhibition assay (33P transfer), AKT
Assay type: biochemical
Condition Description: Table 2, class symbols A-E; read-out: AKT3-1
Reported Endpoint: IC50

Previously resolved entries follow.
COC(=O)c1cccc(Nc2ncnc(-n3c(NCc4ccccc4)nc4ccccc43)n2)c1
> 9.97 µM
COc1cc(Nc2ncnc(Nc3cc(-c4ccc(C(N)=O)cc4)n[nH]3)n2)cc(OC)c1OC
> 9.73 µM
COc1ccc(Nc2ncnc(NCC(=O)c3ccccc3)n2)cc1OC
> 12.3 µM
COc1cc(Nc2ncnc(N3CCCc4cc(Cl)ccc43)n2)cc(OC)c1OC
> 10.5 µM
CN(c1cccc(Cl)c1)c1ncnc(Nc2ccc(OCCO)cc2)n1
> 12.1 µM
COc1cc(Nc2ncnc(-c3cccnc3NC(C)c3cccc4ccccc34)n2)cc(OC)c1OC (centres unmarked)
0.787 to 4.72 µM
CN(c1cccc(Cl)c1)c1ncnc(Nc2cccc(Cn3ccnn3)c2)n1
> 11.5 µM
COc1ccc(Nc2ncnc(N(C)c3ccc(S(=O)(=O)O)cc3)n2)cc1OC
> 10.8 µM

Here is the next item to consider.
Determine from records and report IC50 for `O=C(O)CNC(=O)c1ccc(Nc2ncnc(Nc3cc(-c4ccco4)[nH]n3)n2)cc1`
0.951 to 5.71 µM

---

// reported pIC50 per item
Study System: EGFR (Homo sapiens, UniProt P00533)
Construct: Kinases are expressed as either kinase domains or full length constructs; made in house
Sequence (P00533 25-1210, species assumed): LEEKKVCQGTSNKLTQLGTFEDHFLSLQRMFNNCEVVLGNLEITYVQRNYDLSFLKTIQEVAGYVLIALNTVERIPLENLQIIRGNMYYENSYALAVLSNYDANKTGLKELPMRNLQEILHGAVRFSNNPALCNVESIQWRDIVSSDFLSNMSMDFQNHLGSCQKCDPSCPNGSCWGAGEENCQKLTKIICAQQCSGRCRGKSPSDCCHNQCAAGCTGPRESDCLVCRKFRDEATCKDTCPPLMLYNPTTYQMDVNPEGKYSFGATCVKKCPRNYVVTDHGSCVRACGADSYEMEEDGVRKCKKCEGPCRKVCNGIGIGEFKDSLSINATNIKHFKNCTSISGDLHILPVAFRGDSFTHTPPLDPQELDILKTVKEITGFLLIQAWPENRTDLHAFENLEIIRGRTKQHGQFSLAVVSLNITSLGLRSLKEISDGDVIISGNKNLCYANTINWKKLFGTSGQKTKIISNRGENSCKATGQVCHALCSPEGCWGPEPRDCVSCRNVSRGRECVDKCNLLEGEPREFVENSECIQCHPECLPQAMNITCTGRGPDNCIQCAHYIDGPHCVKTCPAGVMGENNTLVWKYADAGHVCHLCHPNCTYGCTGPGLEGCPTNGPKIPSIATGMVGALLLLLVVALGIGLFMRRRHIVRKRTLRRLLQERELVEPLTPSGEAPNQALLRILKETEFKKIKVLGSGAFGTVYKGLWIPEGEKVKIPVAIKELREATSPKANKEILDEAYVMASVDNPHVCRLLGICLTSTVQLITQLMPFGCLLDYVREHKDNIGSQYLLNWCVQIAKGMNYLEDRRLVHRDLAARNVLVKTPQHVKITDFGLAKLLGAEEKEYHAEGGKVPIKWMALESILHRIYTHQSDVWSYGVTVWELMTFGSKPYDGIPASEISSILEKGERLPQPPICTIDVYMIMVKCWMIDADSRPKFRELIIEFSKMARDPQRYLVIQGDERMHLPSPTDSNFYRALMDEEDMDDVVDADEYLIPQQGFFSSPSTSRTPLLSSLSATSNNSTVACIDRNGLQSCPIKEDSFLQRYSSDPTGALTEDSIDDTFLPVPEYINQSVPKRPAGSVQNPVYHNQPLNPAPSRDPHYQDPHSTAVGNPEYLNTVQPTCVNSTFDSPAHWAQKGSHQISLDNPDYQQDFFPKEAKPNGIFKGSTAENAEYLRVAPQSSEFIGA
Assay Summary: Kinase inhibition assay (33P transfer), EGFR
Format: biochemical
Condition Description: Table 2, kinase inhibition class; read-out: EGFR-1
pIC50: −log10 of the molar value.

Previously resolved entries follow.
Nc1nc2ccccc2n1-c1ncnc(Nc2cccnc2)n1 [Compound 658]
4.94 to 5.10
CCOC(=O)CNc1ncnc(N2CCCc3cc(C)ccc32)n1 [Compound 761]
< 4.86
COc1ccc(Nc2ncnc(NCCCN3CCCCC3C)n2)cc1OC (stereo not drawn) [Compound 782]
< 4.93
COc1cc(Nc2ncnc(NC3CCc4ccccc43)n2)cc(OC)c1OC (stereo not drawn) [Compound 581]
5.21 to 5.99
COc1ccc(CNc2ncnc(Nc3ccc4c(cnn4Cc4ccccc4)c3)n2)cc1OC [Compound 732]
5.02 to 5.13
COC(=O)c1ccc(-c2cc(Nc3ncnc(Nc4cc(OC)c(OC)c(OC)c4)n3)[nH]n2)cc1 [Compound 523]
5.30 to 6.08
COc1cc(Nc2ncnc(-n3c(NCc4cccc(Cl)c4)nc4ccccc43)n2)cc(OC)c1OC [Compound 949]
< 5.06
COc1cc(Nc2ncnc(N[C@@H]3CCCc4ccccc43)n2)cc(OC)c1OC [Compound 620]
5.23 to 6.01
COC(=O)c1ccc(-c2cc(Nc3ncnc(Nc4cccc(CC(=O)O)c4)n3)[nH]n2)cc1 [Compound 604]
5.27 to 6.05
COc1cc(Nc2ncnc(Nc3ccc(Cl)cc3)n2)cc(OC)c1OC [Compound 72]
5.21 to 5.99

Determine from records and report pIC50 for COc1cc(Nc2ncnc(Nc3ccc(N(C)C(C)=O)cc3)n2)cc(OC)c1OC [Compound 81]
< 4.97

Determine from records and report pIC50 for COc1ccc(Cl)cc1Nc1ncnc(Nc2cc(OC)c(OC)c(OC)c2)n1 [Compound 627]
5.24 to 6.02

Determine from records and report pIC50 for COc1cc(Nc2ncnc(-c3cccnc3Cl)n2)cc(OC)c1OC [Compound 1075]
< 4.92

Determine from records and report pIC50 for COc1cc(Nc2ncnc(N[C@@H](CO)c3ccccc3)n2)cc(OC)c1OC [Compound 427]
< 4.95

Determine from records and report pIC50 for COc1ccccc1Nc1ncnc(-c2ccccc2)n1 [Compound 12]
< 4.79
